B1: KCNG1 (parent)
chain: AVNLSVSTLPSLREEEEQVRAHAP

- Variants of: B1
- experimental details: protein stability index of a GFP-peptide fusion (GPS, HEK-293T) (PSI 1-6); higher = more stable;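 also: lentivirally expressed fusions sorted by FACS into six bins by GFP to DsRed ratio, PSI derived from sequencing read proportions per bin multiplied by bin number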
- measurement context: c terminus: a fixed tail appended
measured endpoint: protein stability index
Give the value as a plain number.

Task: Name the recorded protein stability index of the item AVNLSVSTLPSLREEEEQVRHHAP [A21H] in your answer.
Output: 4.68

Task: Give the reported protein stability index for this variant. AVNLSVSTEPSLREEEEQVRAHAP [L9E]
Output: 4.67

Task: Find the measured protein stability index of AVNLSVSTLPSMREEEEQVRAHAP [L12M] and report it.
Output: 4.88

Task: Give protein stability index for AVCLSVSTLPSLREEEEQVRAHAP [N3C]
Output: 4.45

Task: Quick one: give measured protein stability index for AVNLSVSTLPSLREEEEQVRVHAP [A21V]
Output: 4.36

Task: Give recorded protein stability index. AVNLSVSTLPSLREEEEQKRAHAP [V19K]
Output: 5.07

Task: Return value of protein stability index for input AVNLSVSTLPSLREEEWQVRAHAP [E17W] , no commentary.
Output: 3.08

Task: Please indicate protein stability index recorded for AVNLSVSTLPSLREREEQVRAHAP [E15R]
Output: 4.76

Task: Supply recorded protein stability index for AVNPSVSTLPSLREEEEQVRAHAP [L4P] here.
Output: 5.32

Task: State its protein stability index for this variant: AVNLSVSTLPSLREEEEQVQAHAP [R20Q]
Output: 5.12

Task: Query protein stability index for AVNLSTSTLPSLREEEEQVRAHAP [V6T]
Output: 5.08

Task: Determine from records and report protein stability index for IVNLSVSTLPSLREEEEQVRAHAP [A1I]
Output: 4.48

Task: Please indicate protein stability index recorded for WVNLSVSTLPSLREEEEQVRAHAP [A1W]
Output: 3.81

Task: Hello, please tell me recorded protein stability index for this one: AVNLSVSTLPSLRGEEEQVRAHAP [E14G]
Output: 4.56

Task: Fill in reported protein stability index for this entry: AVNLSVSTLPSLREEEEQFRAHAP [V19F]
Output: 4.62

Task: Return reported protein stability index. Input variant: AVNLSVSTLPSLREGEEQVRAHAP [E15G]
Output: 4.59

Task: Recall and state the measured protein stability index for AVNLYVSTLPSLREEEEQVRAHAP [S5Y] .
Output: 4.59

Task: For the variant AVNLSVSTPPSLREEEEQVRAHAP [L9P] , give its measured protein stability index value.
Output: 5.26

Task: Let me know recorded protein stability index for AVNLSVSTLPSLREEEEQVRIHAP [A21I] , thanks.
Output: 4.11

Task: Entry AVNKSVSTLPSLREEEEQVRAHAP [L4K] needs its protein stability index filled in; supply it.
Output: 5.24

Task: Look up and report measured protein stability index for this entry: AVNASVSTLPSLREEEEQVRAHAP [L4A]
Output: 4.86

Task: Note protein stability index for the variant shown: AVNLSVSTLPALREEEEQVRAHAP [S11A]
Output: 5.43

Task: Return protein stability index (reported value) for this variant: AVNLSVSTLPSLRLEEEQVRAHAP [E14L]
Output: 4.51

Task: Give a short answer stating reported protein stability index for AVNLSHSTLPSLREEEEQVRAHAP [V6H] .
Output: 5.3

Task: Tell us which protein stability index value is on record for AVALSVSTLPSLREEEEQVRAHAP [N3A]
Output: 4.75

Task: Give reported protein stability index value for AVNLSVSTLPSLREEEEQVHAHAP [R20H]
Output: 5.06

Task: Give recorded protein stability index. AVNLSVSTLPSLREEEEQWRAHAP [V19W]
Output: 4.46

Task: Give the reported value of protein stability index for this record: AVNLSVSTLPYLREEEEQVRAHAP [S11Y]
Output: 4.54

Task: Find the measured protein stability index of AVNLSASTLPSLREEEEQVRAHAP [V6A] and report it.
Output: 5.14

Task: State its protein stability index: AVNHSVSTLPSLREEEEQVRAHAP [L4H]
Output: 5.72

Task: Hello, please tell me recorded protein stability index for this one: AVNLSVSTLPSLREVEEQVRAHAP [E15V]
Output: 4.06

Task: Report protein stability index for AVNLSVSTLPSLREFEEQVRAHAP [E15F]
Output: 3.52

Task: Please indicate protein stability index recorded for AVNLSVSTLPSLREEEEQARAHAP [V19A]
Output: 4.98

Task: Look up protein stability index of AVNLSVSTLPSLREEEEQVRARAP [H22R] and report it.
Output: 5.22

Task: Fill in protein stability index for record AVNLSVSTSPSLREEEEQVRAHAP [L9S]
Output: 5.09

Task: Given AVNLSVSTLPSLREEEEQVRLHAP [A21L] , respond with its protein stability index.
Output: 4.71

Task: For the variant AVNLSVSTLPSLREEEEQVRAVAP [H22V] , give its measured protein stability index value.
Output: 4.76

Task: Look up and state reported protein stability index for AINLSVSTLPSLREEEEQVRAHAP [V2I]
Output: 4.89

Task: Retrieve protein stability index measured for AVHLSVSTLPSLREEEEQVRAHAP [N3H] and print it.
Output: 4.72

Task: Give protein stability index for the following variant: NVNLSVSTLPSLREEEEQVRAHAP [A1N]
Output: 5.02

Task: Answer with reported protein stability index of AVYLSVSTLPSLREEEEQVRAHAP [N3Y]
Output: 3.66

Task: Given AVNLSVSTLPSCREEEEQVRAHAP [L12C] , respond with its protein stability index.
Output: 4.42

Task: Supply protein stability index value. Item: AVGLSVSTLPSLREEEEQVRAHAP [N3G]
Output: 5.03

Task: Return the recorded protein stability index value; entry: AVNLSWSTLPSLREEEEQVRAHAP [V6W]
Output: 4.53

Task: State its protein stability index: AVNLSVSGLPSLREEEEQVRAHAP [T8G]
Output: 5.15

Task: Retrieve protein stability index measured for AVNLSVSTLPSNREEEEQVRAHAP [L12N] and print it.
Output: 5.11

Task: State its protein stability index for this variant: AVNLSVSTLPSLREEEEQVRGHAP [A21G]
Output: 5.13

Task: Look up protein stability index of AVNLRVSTLPSLREEEEQVRAHAP [S5R] and report it.
Output: 3.29

Task: Give protein stability index for AVNLSVSTLPSLRDEEEQVRAHAP [E14D]
Output: 4.96

Task: Answer with reported protein stability index of AVNLSVSTLPSLREEYEQVRAHAP [E16Y]
Output: 3.63

Task: In one line, give reported protein stability index of the entry MVNLSVSTLPSLREEEEQVRAHAP [A1M] .
Output: 4.61

Task: Using the record for AVNLSVSTLPSLREEEEQVRSHAP [A21S] , state its measured protein stability index.
Output: 4.96

Task: Write down protein stability index measured for item AVNLSVSTLPSLREEEEQVRAWAP [H22W]
Output: 3.02

Task: # return recorded protein stability index for input AVNLSVSTLPSLRAEEEQVRAHAP [E14A]
Output: 4.39

Task: Assign protein stability index to the following record: AVNLSVSTLPSLRECEEQVRAHAP [E15C]
Output: 4.23

Task: Respond only with protein stability index recorded for AVNLSVSTLPSLREEEEQVRATAP [H22T]
Output: 4.91

Task: Respond only with protein stability index recorded for AVNLSVSTLPSLREEEEEVRAHAP [Q18E]
Output: 5.57

Task: For the variant AHNLSVSTLPSLREEEEQVRAHAP [V2H] , report protein stability index.
Output: 5.54

Task: Report protein stability index for AVNLSVSTLPSLREEEEQVRFHAP [A21F]
Output: 3.75

Task: Note down protein stability index recorded for AVNLSVSTLISLREEEEQVRAHAP [P10I]
Output: 3.67

Task: Please look at this variant and report its protein stability index: AVNLSVSTLPSLREDEEQVRAHAP [E15D]
Output: 5.05

Task: Identify protein stability index associated with the variant AVNLGVSTLPSLREEEEQVRAHAP [S5G]
Output: 4.93

Task: Dear colleague, please send me the reported protein stability index for AVNLSVCTLPSLREEEEQVRAHAP [S7C] when you can.
Output: 4.41

Task: Input AVNLSISTLPSLREEEEQVRAHAP [V6I] , output reported protein stability index.
Output: 5.08

Task: Give the measured protein stability index for AVNLSVSRLPSLREEEEQVRAHAP [T8R]
Output: 4.94

Task: For the variant AVNLSVSTLPSLREEREQVRAHAP [E16R] , report protein stability index.
Output: 4.18

Task: Give the reported protein stability index for this variant. AVNLSVSTLPSLREEEEQVRMHAP [A21M]
Output: 4.27

Task: State, in one line, measured protein stability index of AVNLSVSTLPSLREEEEQVRAHWP [A23W]
Output: 4.32

Task: Output protein stability index of AVNLSVSTLPSFREEEEQVRAHAP [L12F]
Output: 4.59

Task: Report measured protein stability index; entry is AVNLSVSTLPSLREHEEQVRAHAP [E15H]
Output: 4.42

Task: Write down protein stability index measured for item AVNLSVSTLPSLRCEEEQVRAHAP [E14C]
Output: 4.16

Task: Give protein stability index for AVNLSVSTLPSLREEEEQLRAHAP [V19L]
Output: 5.14

Task: Tell me protein stability index reported for AVNLSVSTLPSLRNEEEQVRAHAP [E14N]
Output: 4.46

Task: Please supply the value of reported protein stability index for the item AVNLSVSTLPSLREEEEQVRAHHP [A23H]
Output: 4.87

Task: In one line, give reported protein stability index of the entry AVNLSVSTLPSLREEEEQVPAHAP [R20P] .
Output: 5.17

Task: Entry AVNLSVSTLPSLRWEEEQVRAHAP [E14W] needs its protein stability index filled in; supply it.
Output: 3.9

Task: Fill in protein stability index for record AMNLSVSTLPSLREEEEQVRAHAP [V2M]
Output: 4.79

Task: Answer with the recorded protein stability index for the variant listed here: AVNLSVSTLPSAREEEEQVRAHAP [L12A]
Output: 5

Task: Answer with reported protein stability index of AVNLSVSTLPSQREEEEQVRAHAP [L12Q]
Output: 5.19

Task: // Input: AQNLSVSTLPSLREEEEQVRAHAP [V2Q] . Output its protein stability index only.
Output: 5.33

Task: Report protein stability index, nothing else, for this variant: AVNLSVSTLPSLREEEFQVRAHAP [E17F]
Output: 3.23

Task: State, in one line, measured protein stability index of AVNLSVSTLPSLREEEENVRAHAP [Q18N]
Output: 4.95

Task: Quickly give me recorded protein stability index for AGNLSVSTLPSLREEEEQVRAHAP [V2G]
Output: 5.46

Task: Identify measured protein stability index associated with AVNLSVSTLPSSREEEEQVRAHAP [L12S]
Output: 5.33

Task: In one line, give reported protein stability index of the entry AVNLSVSTNPSLREEEEQVRAHAP [L9N] .
Output: 5.42

Task: Output measured protein stability index for this item: AVNLSVSTLPSLREEEEWVRAHAP [Q18W]
Output: 4.05

Task: Look up and state reported protein stability index for AVNLSVSTLPSLREEEEQVSAHAP [R20S]
Output: 4.75

Task: Read off the recorded protein stability index for AVNLSVSTLPSLREEESQVRAHAP [E17S]
Output: 4.61

Task: Recall and state the measured protein stability index for AVNLSVKTLPSLREEEEQVRAHAP [S7K] .
Output: 4.94

Task: Report protein stability index, nothing else, for this variant: AVNLSYSTLPSLREEEEQVRAHAP [V6Y]
Output: 4.69

Task: Supply measured protein stability index of AVNLSVSTLPSLEEEEEQVRAHAP [R13E] in your reply.
Output: 5.25
